MEASUREMENT_SETUP: in n-butanol, 318.15 K
MEASUREMENT_TYPE: solubility (mole fraction)
In your answer, state the number alone without any accompanying words.

Q: # input compound: O=C(O)C[C@H](O)C(=O)O ; wanted: its solubility (mole fraction)
Ans: 0.225

====

MEASUREMENT_SETUP: in isopropanol, 298.15 K
MEASUREMENT_TYPE: solubility (mole fraction)
In your answer, state the number alone without any accompanying words.

Q: # input compound: O=C(O)C[C@H](O)C(=O)O ; wanted: its solubility (mole fraction)
Ans: 0.203

====

MEASUREMENT_SETUP: in isopropanol, 293.15 K
MEASUREMENT_TYPE: solubility (mole fraction)
In your answer, state the number alone without any accompanying words.

Q: # input compound: O=C(O)C[C@H](O)C(=O)O ; wanted: its solubility (mole fraction)
Ans: 0.178

====

MEASUREMENT_SETUP: in isopropanol, 303.15 K
MEASUREMENT_TYPE: solubility (mole fraction)
In your answer, state the number alone without any accompanying words.

Q: # input compound: O=C(O)C[C@H](O)C(=O)O ; wanted: its solubility (mole fraction)
Ans: 0.228
